- METHOD SUMMARY: yeast display, Sf9 membrane polyspecificity reagent, FACS + sequencing; frameworks hold sequencing errors
TEST READOUT: polyreactivity (PSR sort gate)

Some sequences with recorded polyreactivity (PSR sort gate):
QVQLVESGGGLVQAGGSLRLSCAASGSIFTLNTMGWYIQAPGKERELVAVISRSGDRTYYADSVKGRFTISRDNAKNTVYLQMNSLKPEDTAVYYCAADTTKRVRGYDYWGQGTQVTVSS | high polyreactivity
QVQLVESGGGLVQAGGSLRLSCAASGTTFTFNAMGWYRQAPGKEREFVAAITASGGRTYYADSVKGRFTISRDNAKNTVYLQMNSLKPEDTAVYYCAAHACLLGPGDFNYWGQGTQVTVSS | low polyreactivity
QVQLEESGGGLVQAGGSLRLTCAASGSIFGSYTMGWYRKAPGKERELVAVISYSGGSTYYADSVKGRFSISRDNAKNTVYLQMNSLKPEDTAVYYCNAARKGVGYVHPYDFWGQGTQVTVSS | high polyreactivity
QVQLVETGGGLVQARGSLRLSCAASGRTLPDNAMGWSRQAPGNESELVAAITTSGGSTYYADSVMGRFTISRDNAQNTVYLQLNSLKPEDTAVYYCAADIWQYSLIANYHPYDYWGQGTQVTVSS | low polyreactivity

Shift focus to the following entry.
## Task Quick check: polyreactivity (PSR sort gate) of "QVQLQESGGGLVQAGGSLRLSCAASGCISVYTPMGWYRQAPGKERVLVAGINICANTYYADSVKGRFTISRDNAKNTLYLQMNSLKPEDTAVYYCAARRRPGGRYKSRVWYDYWGQGTQVTVSS" ?
## Result high polyreactivity

====

- METHOD SUMMARY: yeast display, Sf9 membrane polyspecificity reagent, FACS + sequencing; frameworks hold sequencing errors
TEST READOUT: polyreactivity (PSR sort gate)

Some sequences with recorded polyreactivity (PSR sort gate):
QVQLVESGGGLVQAGGSLRLSCAASGRIFRGYAMGWYIQAPGKEREFVADITRSGGSTYYADSVKGRFTISRDNAKNTVYLQMNSLKPEDTAVYYCAREWYQYSPYHRFDYWGQGTQVTVSS | high polyreactivity
QVQLVESGGGLVQAGGSLRLSCAASGRTFSSNAKGWYRQAPGKERELVASISFRGGRTYYADSVKGRFTISRDNAKNTVYLQMNSLKPEDTAVYYCVSGTIRTGYGYWGQGTQVTVSS | high polyreactivity
QVQLVESGGGLVQAGGSLRLSCAASGRTFYYAMGWYRQAPGKERELVASITWSGGITTYADSVKGRFTISRDNAKNTVYLQMNSLKPEDTAVYSCAAQVIKGRTYQLGDYWGQGTQVTVSS | high polyreactivity
QVQLVESGGGLVQAGGSLRLSCAASGSTFAKYTMGWYRQAPGKERELVAAISQRGGSTYYADSVKGRFTISRDNAKNTVYLQMNSLKPEDTAVYYCNVRAYAWRYEYWGQGTQVTVSS | high polyreactivity
QVQLVESGGGLVQAGGSLRLSCAPSGSIFVVNAMGWFRQAPGKEREFVAAITFGGGTTYYADSVKGRITISRDNAKNTVYLQMYSLKPEDTEVYYCNTRTRGYSSYVGGYNYWGQGTQVTVSS | low polyreactivity

## Task Quick check: polyreactivity (PSR sort gate) of "QVQLVESGGGIVQAGGSLRLSCADSGSTFRDNAMGLYRQAPGKERELVAAITVIDGTTYYADSVKGRFTISRDNAKNTVYLQMNSLKPEDTAVYYCAADTIWYEYYYWGQGTQVTVSS" ?
## Result low polyreactivity

## Task Quick check: polyreactivity (PSR sort gate) of "QVQLVESGGGLVQAGGSLRLSCAASGRTLKYYAMGWYRQAPGKERELVAAITWSGTRTFYADSVKGRFTISRDNAKNTVYLQMNSLKPEDTAVYYCARTYYGGAGYEYWGQVTQVTVSS" ?
## Result high polyreactivity

## Task Quick check: polyreactivity (PSR sort gate) of "QVQLVESGGGLVQAGGSHRLSCAASGLTLQRYTLGSYRQAPGKQSELVAAISRSGGGTYYADSVKGRFTISRDNAKNTVYLQMNSVKPEDTAVYYCAARGYTSYKHFGYWGQGTQVTVSS" ?
## Result high polyreactivity

## Task Quick check: polyreactivity (PSR sort gate) of "QVQLVESGGGLVKAGGSLRLSCAASGSTFSRYAKGWYRQAPGKEREFVAAISKSGGGTYYADSVKGRFTISRDNAKNTVYLQMNSMKPEETAVYYCARRVRYKHYDYWGQGSQVTVSS" ?
## Result high polyreactivity

## Task Quick check: polyreactivity (PSR sort gate) of "QVQLVESGGGLVQAGGSLRLSCAASGSIFAVYAMGWYRQAPGKERELVAASSTDYAESVKGRFTISRDNAKNTVFLQLNRLKPEDTAVYYCAKVGFGIPGGFYYWGQGTQVTVSS" ?
## Result low polyreactivity

## Task Quick check: polyreactivity (PSR sort gate) of "QVQLVESGGGLVQAGGSLRLSCAASGFTIYYYAMGWYRQAPGKERELVASITSGGSTYYADSVKGRFTISRDNAKNTVYLQMNSLKPEDTAVYYCAKTRFHSKEGDYWGQGTQVTVSS" ?
## Result low polyreactivity

====

- METHOD SUMMARY: yeast display, Sf9 membrane polyspecificity reagent, FACS + sequencing; frameworks hold sequencing errors
TEST READOUT: polyreactivity (PSR sort gate)

QAQLQEIGGSLVQAGGGLRLSCEASGYISVGSVMGWYRQAPSKERELVASIDQGANTNYADSVKGRFTISRDNEKNNVYLQMKSLKPEDTAVYYCATETTYILNDWGQGTQVTVSS | low polyreactivity
QVQLVESGGGLVQAGGSLRLSCAASGGTFEYNAMGWYRPAPGKERELVAAISKSGGRTYYADSVKGRFTISRDNAKNTVYLQMNSLKPEDTAVYYCAKRYVWGQGTQVTVSS | high polyreactivity
QVQLVESGGGLVQAGGSLRLSCAASGRTFYRNAMGWYRQARGKERELVAAISSRGGSTYYADSVKGRFTISRDNAKNTVYLQMNSLKPEDTAVYYCAARYLYLWADYEYGYWGQGTQVTVSS | high polyreactivity
QVQLEESGGGLVQAGGSLRLSCAASGFISIPYAMGWYRQAPGKERELVASITRSGGNTYYADSVKGRFTISRDNAKNTVYLQMNSLKPEDTAVYYCNVVVYRWSPVSKLDYWGQGTQVTVSS | high polyreactivity
QVQHVESGGGLVQAGGSLLLSCAASGSIFYLYAMGWYRQEPGKERELVATMSSSGGSTYYADSVKGRFTISRDNAKNTVYLQMNSLKPEDTAVYYCNADYIYYGTTYEYWGQGTQVTVSS | low polyreactivity

## Task Quick check: polyreactivity (PSR sort gate) of "QVQLVESGGGLVQAGGSLRLSCAASGLTFKVNAMGWYRQAPGRGRELVAAISVSGGSTYYADSVKGRFTISRDNAKNTVYLQMNSLKPEDTAVYYCNADFYYRYYGAYDYWGQGTQVTVSS" ?
## Result high polyreactivity

## Task Quick check: polyreactivity (PSR sort gate) of "QVQLVESGGGLDQAGGSLRLSCAASGITFPAYAMGLYRQAPGKEREWVAAITSGSSTNYADSVKGRFTISRDNAKNTVYLHLNSLKPEDTAVYYCAAQASYWGYRSGNRYGYWGQGTQVTVSS" ?
## Result high polyreactivity

## Task Quick check: polyreactivity (PSR sort gate) of "QVQLVESGGGLVQAGGSLRLSCAASGRIFAYYAMGWYRQAPGKERELVAAISSSGVSTSYADSVKGRFTISRDNAKNTVYLQMNSLKPEDTAVYYCAASPGGRPYFNHDSWGQGTQVTVSS" ?
## Result low polyreactivity

## Task Quick check: polyreactivity (PSR sort gate) of "QVQLVESGGGLVQAGGSLRLSCAASGFTFYIYAMGWDRQAPGKERELVAAIRASGGSTYYADSVKGRFTISRDSAKNTVYFLMNSLNPDDTAVYYCAADYKVYASWYYAYTFYYWGQGTQVTVSS" ?
## Result low polyreactivity

## Task Quick check: polyreactivity (PSR sort gate) of "QVQLVESGGGLVQAGGSLRLSCAASGSTFPPYVMGWYRQAPGKERELVAAISRGGGSTYYADSVKGRFTISRDNAKNTVYLQMNSLKPEDTAVYYCAAKNVYHDDYWGQGTQVTVSS" ?
## Result high polyreactivity

## Task Quick check: polyreactivity (PSR sort gate) of "QVQLVESGGGLVQAGGSLRLSCAASGGIFTLYVMGWYRQAPGKERELVAAISRTGGSTYYADSVKGRFTISRDNAKNTVYLQMNSLKPEDTAVYFCAALYRGGTRYGGYDYWGQGTQVTVSS" ?
## Result high polyreactivity

====

- METHOD SUMMARY: yeast display, Sf9 membrane polyspecificity reagent, FACS + sequencing; frameworks hold sequencing errors
TEST READOUT: polyreactivity (PSR sort gate)

Some sequences with recorded polyreactivity (PSR sort gate):
QVQLVESGGGLVQAGGILRLSCAASGNIFDRYAMGWYSQAPGKERELVAGMTWSGGSTYYADSVKWRFTISRDNAKNTVYLQMNSLKPEDTAVYYCGQANYYWGQGTQVTVSS | low polyreactivity
QVQLVESGGGLVQAGGSLRLSCAASGRIFIYYAMGWYRQAPGKERELVAAITSGGSTIYADSVKGRFTIPRDNAKNTVYLQMNSLKPEDTAVYDCAARYVRSQTRFDYWGQGTQVTVSS | high polyreactivity
QVQIVESVGCLVQARGSLRLSSAASGFILVINAMGWYRQAPGKERELVAAINGGDITNYADSVKGRFTFSRDNAKNNVYLQMNSLKPEDTAVYYCSADGEDSLWTGYDYDYWGLGTQVTVSS | low polyreactivity
QVQLVESGGGLVQAGGSLRLSCAASGIILAFNAMGWYRQAPGKEREFVASISQGGSSTYYADSVKGRFTISRDNAKNTVYLQMNSLKREDTAVYYCAARSSRVRSPYQRYYYWGQGTQVTVSS | high polyreactivity
QVQLVESGGGLVQAGGSLRIRCAASGGIFPPNAMGWYRHPPGKERELVASISSDGSTNYADSVKGRFTISRDNAKNNVILQMNSLKPEDTAVFYCNATHEAFELDYWGQGTQVNVSS | low polyreactivity
QVQLVESGGGLVQAGGSLRLSCAASGSIFVHYAMGWYRQAPGKERELVAAITSSGGRTYYADSVKGRFTISRDNAKNTVYLQMNSLKPEDTAVYYCNAAKYLFRHGFLSAGDMYYWGQGTQVTVSS | high polyreactivity
QVQLVESGGGLVQAGGSLRLSCAASGLTSNGYTMGWYRQAPGKERELVAAITGRDGSTYADSVKGRFTISRDNAKNTVYLQMNSLKPEHTAVYYCAARLWRYRRYDYWGQGTQVTVSS | high polyreactivity
QVQLVESGGGIVQAGGSLRLLCAASGSIFLTNAMGWYRQAPGKERQFVAAIDWGGTITYYADSVKGRFTISRDNAKNNVYLQMNSLKPEDTAVYYCAADGYIRQYVTYYYWGQGTQVTVSS | low polyreactivity
QVQIVESGGGLVQAGGSLRLSCAASGRTFPYYVMGWYRHAPGKERELVATISSSGRTYYADSVKGRFTISRDNAKNTVYLQMNSLKPEDTAVYYCAARFRWNQNYHFYYWGQGTQVTVSS | high polyreactivity
QVQLVESGGGLVQAGGSLRLSCAASGSIFPQYAMGWYRQAPGTERELVAAISSSGGRTYYADSVKGRFTISRDNAKYTVYLQMNSLKPEDTAVYYCITRWRSRYGYGDQSEDYWGQGTQVTVSS | high polyreactivity

Shift focus to the following entry.
## Task Quick check: polyreactivity (PSR sort gate) of "QVQLVESGGGLVQAGGSLRLSCAASGNTFEDYAMGWYRQAPGKERELVAAINSGGSTNYADSVKGRFTISRDNAKNTVYLQMNSLKPEDTAVYYCAAEPGEGFDYWGQGTQVTVSS" ?
## Result low polyreactivity

Data provenance: the nanobody polyreactivity screen of Harvey et al. (2022)
